Catalogue of compounds with associated Prodrug (%)
assay: Plasma Stability Assay (Example A3), rat plasma; type: in vitro ADME; details: 10 μM, 37° C., prodrug remaining, 10 min
readoutType: Prodrug (%)

compound="COc1ccc([C@@]23CCC(OP(=O)(O)OCOC(=O)C(C)C)=C[C@@H]2N(C)CC3)cc1OC [Compound 408]" readouttype="Prodrug (%)" result=63.8%
compound="COc1ccc([C@@]23CCC(OP4(=O)OCC(C)(C)CO4)=C[C@@H]2N(C)CC3)cc1OC [Compound 323]" readouttype="Prodrug (%)" result=>99%
compound="COc1ccc([C@@]23CCC(OP4(=O)OC(C)CC(C)O4)=C[C@@H]2N(C)CC3)cc1OC (stereo partly shown) [Compound 423]" readouttype="Prodrug (%)" result=>99%
compound="COc1ccc([C@@]23CCC(OP(=O)(O)OCOC(=O)C(C)(C)C)=C[C@@H]2N(C)CC3)cc1OC [Compound 409]" readouttype="Prodrug (%)" result=89.9%
compound="COc1ccc([C@@]23CCC(OP(=O)(O)OCOC(=O)OC(C)C)=C[C@@H]2N(C)CC3)cc1OC [Compound 410]" readouttype="Prodrug (%)" result=63.0%
compound="COc1ccc([C@@]23CCC(OP(=O)(OC(C)C)OC(C)C)=C[C@@H]2N(C)CC3)cc1OC [Compound 321]" readouttype="Prodrug (%)" result=74.0%
compound="COc1ccc([C@@]23CCC(OP4(=O)OCCCO4)=C[C@@H]2N(C)CC3)cc1OC [Compound 422]" readouttype="Prodrug (%)" result=>99%
